Ki values for the molecules below.
Biological target: 5-hydroxytryptamine receptor 7 (Homo sapiens, UniProt P34969)
Sequence (P34969 whole entry): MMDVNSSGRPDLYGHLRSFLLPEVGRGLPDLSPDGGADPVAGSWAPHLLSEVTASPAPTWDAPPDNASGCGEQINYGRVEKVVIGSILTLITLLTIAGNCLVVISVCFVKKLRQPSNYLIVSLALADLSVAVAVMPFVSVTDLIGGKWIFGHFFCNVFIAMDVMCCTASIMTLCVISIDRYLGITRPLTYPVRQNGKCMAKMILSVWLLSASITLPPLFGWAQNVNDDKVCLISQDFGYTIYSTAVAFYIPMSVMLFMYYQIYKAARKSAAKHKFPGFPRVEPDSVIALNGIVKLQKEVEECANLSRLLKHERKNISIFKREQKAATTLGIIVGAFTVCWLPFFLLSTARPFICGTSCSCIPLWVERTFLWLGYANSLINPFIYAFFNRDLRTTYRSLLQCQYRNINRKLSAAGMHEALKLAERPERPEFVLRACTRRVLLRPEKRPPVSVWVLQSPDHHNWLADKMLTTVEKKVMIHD
Write the value in nM as a bare number.

CN(C)CCSc1cccc(-c2ccoc2)n1 26
CN(C)CCOc1ccccc1-c1ccccc1 156
CCCN(CCC)[C@H]1CCc2c(cccc2-c2ccccc2)C1 2.91

// next entry
Fill in: Ki of CCCN(CCC)[C@H]1CCc2c(cccc2-c2cccc3ccccc23)C1 is ___
0.3
